# Tested on: Leishmania infantum
# assaySummary: WHO-TDR: Leishmaniasis
# Type: functional, organism-based, Mus musculus
# details: Macrophage
assayEndpoint: IC50

Below, 2 compounds whose answers are already recorded.
// lookup IC50 for `CC(C)S(=O)(=O)c1ccc(C(=O)Nc2ccccc2-c2nc3ccccc3[nH]2)cc1`
0.407 µg/mL

Moving on to `CCN(C1CCCCC1)S(=O)(=O)c1ccc(C(=O)Nc2nnc(-c3ccccc3)o2)cc1`
> 13.6 µg/mL

Others:
Item under review: `CCOc1cccc2sc(N(CCCn3ccnc3)C(=O)c3cccs3)nc12` . Reported IC50?
> 13.5 µg/mL

Now try `CN(C)CCCN(C(=O)c1ccccc1F)c1nc2c(Cl)cccc2s1` .
4.16 µg/mL

Check `Cc1cc(=O)[nH]c(-n2nc(C)cc2NC(=O)c2ccccc2C(F)(F)F)n1` too.
> 11.3 µg/mL

Next up: `CCn1nc(C(=O)Nc2nnc(-c3ccc4c(c3)CCCC4)o2)cc1C`
> 10.5 µg/mL

Same for `NC(=O)c1csc(NC(=O)C2(c3ccc(Cl)cc3)CCCC2)n1`
> 10.5 µg/mL

Check `O=C(NCc1cccs1)c1cn(Cc2ccccc2)nc1OCc1ccccc1` too.
> 12.1 µg/mL

Then what about the compound `COc1ccc(Cl)cc1C(=O)NCCOc1ccc2nnc(-c3ccc(F)cc3)n2n1` ?
4.29 µg/mL

Cool, now `Cc1c(C(=O)N2CCC(C)CC2)sc2nc(-c3ccc(F)cc3)cn12`
> 10.7 µg/mL

Now consider `O=S(=O)(CCCOc1ccc2c(c1)OCO2)NCCc1c[nH]c2ccccc12` .
> 12.1 µg/mL

Do the same for `O=C1C=CC(=O)N1c1ccccc1F` please
> 5.73 µg/mL

What do we get for CCN1CCc2c(sc(NC(=O)c3ccc(S(=O)(=O)N4CC5(C)CC4CC(C)(C)C5)cc3)c2C(N)=O)C1 (stereo unspecified) ?
5.29 µg/mL

Another compound to look at: CC1CCc2[nH]nc(-c3nc(-c4ccc(Cl)cc4)no3)c2C1 (stereo unspecified)
> 9.44 µg/mL

Also check O=C(Nc1nc2c(s1)CCCC2C(=O)NCCC1=CCCCC1)c1ccccc1 (stereo unspecified)
> 12.3 µg/mL

Would you mind doing `O=C(C1CC1)N1CCc2ccc(NS(=O)(=O)c3ccc4c(c3)CCCC4)cc21` as well?
> 11.9 µg/mL

Repeat for the following compound: `COc1cccc2sc(Nc3sc4c(c3C(N)=O)CCCC4)nc12`
4.55 µg/mL

Subsequent entry: `O=S(=O)(NCCNc1ccc(Nc2ccccn2)nn1)c1ccccc1C(F)(F)F`
> 13.2 µg/mL

Same question for `O=C(Nc1ccc(OC(F)(F)F)cc1)c1csc(NS(=O)(=O)c2cccs2)n1` please.
> 13.5 µg/mL

Param item: `COc1ccc2oc(-c3csc(NC(=O)c4cccc(OC)c4OC)n3)cc2c1`
0.638 µg/mL

Next up: `COc1ccc(-c2nc(NC(=O)CSc3ccc(Cl)cc3)sc2C)cc1`
> 12.1 µg/mL

Request: COc1ccc(S(=O)(=O)NCC(c2cccnc2)N2CCN(Cc3ccccc3)CC2)cc1C (stereo unspecified)
7.47 µg/mL

Can you handle `COc1ccc(S(=O)(=O)CC(=O)Nc2sc(-c3ccccc3)cc2C(N)=O)cc1` next?
> 12.9 µg/mL

Note, next up: `O=C(Cc1csc(Nc2cccc(Cl)c2)n1)N1CCN(C(=O)c2ccco2)CC1`
6.7 µg/mL

How about `O=C(Cc1csc(NS(=O)(=O)c2ccc(Cl)cc2)n1)Nc1ccc(F)c(F)c1` ?
> 13.3 µg/mL

Same lookup for `Cc1cccc(NC(=O)Cn2nc(C(C)C)c3cnn(-c4ccccc4C)c3c2=O)c1` , please.
> 12.5 µg/mL

###

# assaySummary: WHO-TDR: Cytotoxicity
# Assay type: toxicity, cell-based
# details: human, MRC5 cells
assayEndpoint: IC50

Which IC50 value belongs to `CCc1cc(=O)[nH]c(-n2nc(C)cc2NC(=O)Cc2cccs2)n1` ?
0.293 µg/mL

Now the same for `O=C(Nc1ccc(F)cc1)Nc1nc(C(=O)N2CCN(c3ccccc3F)CC2)cs1`
5.3 µg/mL

Param item: `CCCC(=O)N1CCN(c2ccc(Nc3ccncc3)nn2)CC1`
> 9.79 µg/mL

Another compound to check: `Cc1ccc(S(=O)(=O)N2CCCc3cc(NC(=O)Oc4ccccc4)ccc32)cc1`
1.76 µg/mL

Next compound up: `CCn1ccnc1N1CCN(CC(=O)NC2CCCCC2)CC1`
> 11.8 µg/mL

Proceed to `Fc1cccc2sc(Nc3nc4c(s3)CCCC4)nc12`
> 9.16 µg/mL

Also need O=C(CC1CCCCN1S(=O)(=O)c1ccc(Cl)cc1)Nc1ccc2c(c1)OCO2 (stereo unspecified) , thanks.
> 13.1 µg/mL

# iterate: `CCOC(=O)c1ccc(NC(=O)CSc2nnc(NC(=O)C34CC5CC(CC(C5)C3)C4)s2)cc1`
> 15 µg/mL

Also O=C1CC(CNS(=O)(=O)c2ccccc2F)CN1c1ccc(Cl)cc1 (stereo unspecified) ?
> 11.5 µg/mL

Here is the next compound: `O=C(O)CCC(=O)Nc1ccc(Br)cc1`
> 8.16 µg/mL

New cases:
// IC50 lookup, key: `Cc1n[nH]c(C)c1CCc1nc(-c2ccc(Cl)cc2)no1`
> 9.08 µg/mL

Another: `COc1ccc(CC(=O)N2CCN(c3nccn3-c3cccc(Cl)c3)CC2)cc1OC`
> 14.3 µg/mL

Next compound: `COc1cc(N2CCN(C(=O)Nc3cccc(Cl)c3)CC2)nc(OC)n1`
> 11.3 µg/mL

Can you check `COc1ccc(OC)c(S(=O)(=O)NCCNc2ccc(Nc3cc(C)ccn3)nn2)c1` next?
> 13.3 µg/mL

Queued: `COc1ccc(-c2nc(NC(=O)Cc3ccc(SC)cc3)sc2C)cc1`
1.29 µg/mL

Consider next the compound `CC(C)CCN1C(=O)CCc2cc(NC(=O)COc3ccc(Cl)cc3)ccc21` in the same way.
> 12 µg/mL

###

# Test system: Leishmania infantum
# assaySummary: WHO-TDR: Leishmaniasis
# Format: functional, organism-based, Mus musculus
# details: Macrophage
The reader will find reported IC50 values listed item by item below.

# returns recorded IC50 (system: Leishmania infantum) for `Fc1cccc2sc(Nc3nc4c(s3)CCCC4)nc12`
> 9.16 µg/mL

Also `CC(C)c1ccc2nc(NC(=O)c3ccc(C#N)cc3)sc2c1` ?
> 7 µg/mL

And then CN(C)C(CNS(=O)(=O)c1ccc2c(c1)CCCC2)c1ccc(F)cc1 (stereo not given) , what is it?
> 11.3 µg/mL

And what about the compound `C=CCN(CC=C)S(=O)(=O)c1ccc(C(=O)Nc2nc3ccc(C(C)C)cc3s2)cc1` ?
> 11 µg/mL

// next entry
So what IC50 did `CCCN1C(=O)CCc2cc(NS(=O)(=O)c3ccc(F)cc3)ccc21` get with Leishmania infantum?
> 10.9 µg/mL

###

# assaySummary: WHO-TDR: Cytotoxicity
# Format: toxicity, cell-based
# details: human, MRC5 cells
Recorded IC50 for the following molecules

Which value of IC50 has been reported for `O=C(CSc1ncc(-c2ccccc2)[nH]1)N1CCCc2ccccc21` in the records?
> 10.5 µg/mL

Would you kindly repeat that for `CCNc1cc(C)nc(Nc2ccc(NS(=O)(=O)c3ccc4nc(C)sc4c3)cc2)n1` ?
0.543 µg/mL

New cases:
Which value of IC50 has been reported for `CC(C)c1ccc2nc(NC(=O)c3ccc(C#N)cc3)sc2c1` in the records?
> 7 µg/mL

###

# Tested on: Schistosoma mansoni
# assaySummary: WHO-TDR: Schistosomiasis
# Type: functional, organism-based
assayEndpoint: IC50 (µM)

Request - read-out IC50 | tested on Schistosoma mansoni | compound `COc1cc(OC)cc(C(=O)N(CCCN(C)C)c2nc3c(C)c(C)ccc3s2)c1`
5.7

Now the compound `O=C(CSc1nncc(=O)[nH]1)Nc1ccc(Br)cc1`
5.2

Repeat with `CCc1ccc(NC(=O)c2oc3ccccc3c2NC(=O)Cc2cccs2)cc1`
6.5

Check `COC(=O)c1sc(-c2ccccc2)cc1NC(=O)CCS(=O)(=O)c1ccccc1` too.
8.2

Quick one: `CCOC(=O)N1CCc2c(sc(NC(=O)c3nc4ccccc4s3)c2C(N)=O)C1`
6.7

Lookup CN(CC1CCCO1)S(=O)(=O)c1ccc(C(=O)Nc2cccc(-c3nc4ccccc4o3)c2)cc1 (stereo not drawn)
7.4

###

Listed molecules paired with reported % Inhibition
# Tested on: Brugia malayi
# assaySummary: WHO-TDR: Lymphatic Filariasis
# Type: functional
# Design: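 tested at 10 µM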
Enter your answer as a number in %; do not include the unit.

Below, 7 molecules whose answers are already recorded.
# query: % Inhibition of entry `Cc1cccc2sc(N(CCCn3ccnc3)C(=O)c3ccc(Cl)s3)nc12`
0

Also `CCn1ccnc1N1CCN(C(=O)c2cccc(OC)c2OC)CC1` , if possible.
0

Okay, and `COc1ccc(OC)c(Nc2c(C#N)cnc3ccc(Cl)cc23)c1` ?
20

Let us now turn to `Cc1nc2c(ccc3nc(Nc4nc5ccc(C(C)C)cc5s4)sc32)s1`
25

Same question for `CCCc1nnc(NC(=O)CSc2ccc(NC(=O)c3cccs3)nn2)s1` please.
0

Note, next up: `CC(C)(C)c1ccc(C(=O)N2CCN(c3ccc(Nc4ccncc4)nn3)CC2)cc1`
0

Another molecule to look at: `O=C(CSc1ccc(NC(=O)c2ccco2)nn1)Nc1ccccc1C(F)(F)F`
0

Others:
I'd like to know its % Inhibition. The molecule in question is `CCn1nc(C)cc1C(=O)N1CCN(c2nc3c(C)ccc(C)c3s2)CC1`
0

Entry source: ChEMBL document CHEMBL2093137
